test system: HOP-92 NSCLC; test: NCI tumour cell line growth inhibition, 48 h
Here the recorded TGI is given for each entry.
Return type: number; implicit unit µM.

Take a look at these entries with their results.
Cc1cc(Nc2cc(N3CCN(C)CC3)nc(/C=C/c3ccccc3)n2)n[nH]1 : 1.95
CCN(CC)CCCC(C)Nc1c2cc(OC)cc(C)c2nc2c(C)c(Cl)ccc12 (centres undefined) : 3.22
COc1ccc(OC)c2c1C=CC(Br)=CC2 : 0.463
COc1cc(/C=N/N=C(\N)NO)c(Cl)cc1O : 73.2

Enquiry: # TGI lookup, item CC(=O)[CH-]C(=O)c1ccccc1.CC(=O)[CH-]C(=O)c1ccccc1.CC(=O)[CH-]C(=O)c1ccccc1.[Nd+3].[OH3+]
Return: 77.4

Enquiry: Can you handle COc1cc(C2(c3ncc[nH]3)SSSCC2O)ccc1O (centres undefined) next?
Return: 58.3
